Assay: Food effect PK study, two single oral 1000 mg doses of abiraterone acetate, fed (high fat) vs fasted
Format: in vivo, human
Conditions: human, plasma, oral, 1000 mg, Patient 15; Fasted
measurement-kind: Cmax (nM)
Reply with just the number (in nM).

Qu. Tell me the measured Cmax of C[C@]12CC[C@H](O)CC1=CC[C@@H]1[C@@H]2CC[C@]2(C)C(c3cccnc3)=CC[C@@H]12 , please.
Ans. 420

* * *

Test: Pharmacokinetic study of abiraterone in hormone refractory prostate cancer patients, oral doses 250-2000 mg/day, fasted
Assay type: in vivo, human
Conditions: male, human; mean; 500 mg/day abiraterone acetate oral, fasted; plasma
Description: A group of 15 subjects was divided into five groups. Members of each group were orally administered doses of 250 mg/day, 500 mg/day, 750 mg/day, 1000 mg/day or 2000 mg/day once a day. Before administration the subjects had fasted. PK blood samples were measured at 1, 2, 4, 6, 8, 24, and 72 hours post dose. […]
measurement-kind: Tmax

Qu. Tell me the measured Tmax of C[C@]12CC[C@H](O)CC1=CC[C@@H]1[C@@H]2CC[C@]2(C)C(c3cccnc3)=CC[C@@H]12 [Abiraterone] , please.
Ans. 2.59 h
